# TGI annotations
# System: T-47D breast
# testName: NCI tumour cell line growth inhibition, 48 h
endpoint: TGI (µM)

compound: CN(C)Cc1cc(C(=O)/C=C/c2c(Cl)cccc2Cl)cc(CN(C)C)c1O
unitString: µM
modifier: =
value: 42

compound: N=C(N)C(N=Nc1ccccc1)C(=N)N (stereo not given)
unitString: µM
modifier: >
value: 100

compound: COc1c(C(=O)O)cccc1-c1cccc(C(=O)NCCN(CCNC(=O)c2cccc(-c3cccc(C(=O)O)c3OC)c2OC)CCNC(=O)c2cccc(-c3cccc(C(=O)O)c3OC)c2OC)c1OC
unitString: µM
modifier: >
value: 100

compound: N#CCc1[nH]nc2nc(SCc3ccccc3)nc(N3CCCCC3)c12
unitString: µM
modifier: =
value: 39.1

compound: CC1=C(C#N)C(=O)N(/N=C/c2ccc(Cl)cc2)C(=O)/C1=c1\o/c(=C2/C(=O)N(/N=C/c3ccc(Cl)cc3)C(=O)C(C#N)=C2C)c2nccnc12
unitString: µM
modifier: >
value: 100
